Measured values drawn from the kinase profiling compilation of Christmann-Franck et al. (2016) for this set.

Biological target: RPS6KA4 KD2 (human) (UniProt O75676)
Sequence (O75676 whole entry, looked up): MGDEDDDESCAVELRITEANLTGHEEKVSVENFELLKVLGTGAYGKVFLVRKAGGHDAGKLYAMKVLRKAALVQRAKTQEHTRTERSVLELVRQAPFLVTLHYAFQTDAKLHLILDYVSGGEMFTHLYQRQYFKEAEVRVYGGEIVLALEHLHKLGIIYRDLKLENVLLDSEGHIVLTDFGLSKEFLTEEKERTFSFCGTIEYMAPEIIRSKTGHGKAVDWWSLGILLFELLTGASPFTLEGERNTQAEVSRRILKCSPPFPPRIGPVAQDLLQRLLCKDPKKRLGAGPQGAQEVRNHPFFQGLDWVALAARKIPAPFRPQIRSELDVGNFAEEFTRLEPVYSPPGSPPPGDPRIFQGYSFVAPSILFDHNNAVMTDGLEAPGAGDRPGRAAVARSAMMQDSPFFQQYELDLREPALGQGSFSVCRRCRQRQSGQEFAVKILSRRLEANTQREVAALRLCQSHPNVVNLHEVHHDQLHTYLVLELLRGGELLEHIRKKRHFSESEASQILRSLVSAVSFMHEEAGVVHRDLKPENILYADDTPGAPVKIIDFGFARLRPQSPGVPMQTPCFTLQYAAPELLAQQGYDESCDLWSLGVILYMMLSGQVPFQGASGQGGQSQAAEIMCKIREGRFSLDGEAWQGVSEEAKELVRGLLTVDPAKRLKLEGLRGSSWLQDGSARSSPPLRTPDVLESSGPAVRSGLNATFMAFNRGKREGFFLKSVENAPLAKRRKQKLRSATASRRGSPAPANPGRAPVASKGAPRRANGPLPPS
Assay: radiometric filter-binding kinase assay, Kinase HotSpot
Conditions: compound 0.5 µM; ATP 10 µM
QUANTITY: residual activity (%)
Lab book: enter the figure in %, no units written.

What value of residual activity has been recorded for this entry: O=C1Nc2ccc(Br)cc2/C1=C\c1cc2c([nH]1)CCCC2
94.2

What value of residual activity has been recorded for this entry: COc1ccc(C(=O)Nc2sc3c(c2C(N)=O)CCCC3)cc1OC
102

What value of residual activity has been recorded for this entry: N#Cc1c[nH]c2c[nH]/c(=N\Cc3cccnc3)cc2/c1=N\c1ccc(F)c(Cl)c1
92

What value of residual activity has been recorded for this entry: COc1cc2ncnc(Nc3ccc(Oc4ccccc4)cc3)c2cc1OC
94.4

What value of residual activity has been recorded for this entry: COc1ccc(S(=O)(=O)N(CCO)c2ccccc2CN(C)C/C=C/c2ccc(Cl)cc2)cc1
107

What value of residual activity has been recorded for this entry: Fc1ccc(-c2nc3n(c2-c2ccncc2)CCS3)cc1
88.8
